From: paper PMC6515519

target: mMC4R (Mus musculus); construct: expressed in transfected cells; test: β-galactosidase cAMP reporter assay, antagonist Schild analysis with NDP-MSH as agonist; format: cell-based
Non-standard residues stand in square brackets, D forms with d. Residues, ends and D or L forms follow the SMILES beside them. dPhe(4-tBu) = CC(C)(C)c1ccc(C[C@@H](N)C(=O)O)cc1; dPhe(3,4-Cl2) = N[C@H](Cc1ccc(Cl)c(Cl)c1)C(=O)O; dPhe(4-CF3) = N[C@H](Cc1ccc(C(F)(F)F)cc1)C(=O)O; dPhe(4-CN) = N#Cc1ccc(C[C@@H](N)C(=O)O)cc1; Tic = O=C(O)[C@@H]1Cc2ccccc2CN1
Record form. Attribute: Kb. Fill in for each entry.

# input compound: CC(=O)N[C@@H](Cc1c[nH]cn1)C(=O)N[C@@H](CCCNC(=N)N)C(=O)N[C@H](Cc1ccc(C(F)(F)F)cc1)C(=O)N1Cc2ccccc2C[C@H]1C(N)=O [KNS2-23-6, Ac-His-Arg-(pCF3)DPhe-Tic-NH2] (Ac-HR[dPhe(4-CF3)][Tic]-NH2) ; wanted: its Kb
0.316 µM

# input compound: CC(=O)N[C@@H](Cc1c[nH]cn1)C(=O)N[C@@H](CCCNC(=N)N)C(=O)N[C@H](Cc1ccc(C(C)(C)C)cc1)C(=O)N1Cc2ccccc2C[C@H]1C(N)=O [KNS2-23-3, Ac-His-Arg-(ptBu)DPhe-Tic-NH2] (Ac-HR[dPhe(4-tBu)][Tic]-NH2) ; wanted: its Kb
0.158 µM

# input compound: CC(=O)N[C@@H](Cc1c[nH]cn1)C(=O)N[C@@H](CCCNC(=N)N)C(=O)N[C@H](Cc1ccc(C#N)cc1)C(=O)N1Cc2ccccc2C[C@H]1C(N)=O [KNS2-23-8, Ac-His-Arg-(pCN)DPhe-Tic-NH2] (Ac-HR[dPhe(4-CN)][Tic]-NH2) ; wanted: its Kb
> 3.16 µM

# input compound: CC(=O)N[C@@H](Cc1c[nH]cn1)C(=O)N[C@@H](CCCNC(=N)N)C(=O)N[C@H](Cc1ccc(Cl)c(Cl)c1)C(=O)N1Cc2ccccc2C[C@H]1C(N)=O [KNS2-23-4, Ac-His-Arg-(3,4-diCl)DPhe-Tic-NH2] (Ac-HR[dPhe(3,4-Cl2)][Tic]-NH2) ; wanted: its Kb
0.708 µM

----------
Record form. Attribute: EC50. Fill in for each entry.
target: mMC5R (Mus musculus); experiment: β-galactosidase cAMP reporter assay, agonist pharmacology in HEK293 cells stably expressing mMC5R; conditions: β-galactosidase cAMP, HEK293; mean ± SEM; apparent EC50 for partial agonists
Sequence (P41149 whole entry): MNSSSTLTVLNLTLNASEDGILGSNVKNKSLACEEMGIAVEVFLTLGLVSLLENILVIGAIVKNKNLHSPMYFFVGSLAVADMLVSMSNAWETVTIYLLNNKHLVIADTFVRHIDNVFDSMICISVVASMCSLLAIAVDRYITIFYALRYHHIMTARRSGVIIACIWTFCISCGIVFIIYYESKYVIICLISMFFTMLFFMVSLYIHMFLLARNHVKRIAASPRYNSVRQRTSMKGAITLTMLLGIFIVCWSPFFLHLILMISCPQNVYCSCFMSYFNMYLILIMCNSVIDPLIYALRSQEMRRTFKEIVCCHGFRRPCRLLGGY
Non-standard residues stand in square brackets, D forms with d. Residues, ends and D or L forms follow the SMILES beside them. dPhe(3,4-Cl2) = N[C@H](Cc1ccc(Cl)c(Cl)c1)C(=O)O; dPhe(4-Br) = N[C@H](Cc1ccc(Br)cc1)C(=O)O; dPhe(4-F) = N[C@H](Cc1ccc(F)cc1)C(=O)O; Tic = O=C(O)[C@@H]1Cc2ccccc2CN1

# input molecule: CC(=O)N[C@@H](Cc1c[nH]cn1)C(=O)N[C@@H](CCCNC(=N)N)C(=O)N[C@H](Cc1ccc(O)cc1)C(=O)N1Cc2ccccc2C[C@H]1C(N)=O [KNS2-23-9, Ac-His-Arg-DTyr-Tic-NH2] (Ac-HR[dY][Tic]-NH2) ; wanted: its EC50
1000 nM

# input molecule: CC(=O)N[C@@H](Cc1c[nH]cn1)C(=O)N[C@@H](CCCNC(=N)N)C(=O)N[C@H](Cc1ccc(Br)cc1)C(=O)N1Cc2ccccc2C[C@H]1C(N)=O [KNS2-22-3, Ac-His-Arg-(pBr)DPhe-Tic-NH2] (Ac-HR[dPhe(4-Br)][Tic]-NH2) ; wanted: its EC50
9.7 nM

# input molecule: CC(=O)N[C@@H](Cc1c[nH]cn1)C(=O)N[C@@H](CCCNC(=N)N)C(=O)N[C@H](Cc1ccc(F)cc1)C(=O)N1Cc2ccccc2C[C@H]1C(N)=O [KNS2-22-2, Ac-His-Arg-(pF)DPhe-Tic-NH2] (Ac-HR[dPhe(4-F)][Tic]-NH2) ; wanted: its EC50
70 nM

# input molecule: CC(=O)N[C@@H](Cc1c[nH]cn1)C(=O)N[C@@H](CCCNC(=N)N)C(=O)N[C@H](Cc1ccc(Cl)c(Cl)c1)C(=O)N1Cc2ccccc2C[C@H]1C(N)=O [KNS2-23-4, Ac-His-Arg-(3,4-diCl)DPhe-Tic-NH2] (Ac-HR[dPhe(3,4-Cl2)][Tic]-NH2) ; wanted: its EC50
70 nM

----------
Record form. Attribute: EC50. Fill in for each entry.
target: mMC4R (Mus musculus, UniProt P56450); experiment: β-galactosidase cAMP reporter assay, agonist pharmacology in HEK293 cells stably expressing mMC4R
Sequence (P56450 whole entry): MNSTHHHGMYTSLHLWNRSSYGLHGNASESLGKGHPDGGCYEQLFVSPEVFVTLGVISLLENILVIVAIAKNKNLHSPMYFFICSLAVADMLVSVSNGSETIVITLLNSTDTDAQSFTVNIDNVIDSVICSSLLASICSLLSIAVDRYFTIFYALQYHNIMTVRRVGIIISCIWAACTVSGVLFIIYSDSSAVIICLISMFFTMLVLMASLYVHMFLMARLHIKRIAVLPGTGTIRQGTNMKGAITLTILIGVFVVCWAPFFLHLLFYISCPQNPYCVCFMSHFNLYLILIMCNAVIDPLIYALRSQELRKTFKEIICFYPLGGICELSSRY
Non-standard residues stand in square brackets, D forms with d. Residues, ends and D or L forms follow the SMILES beside them. dPhe(4-CF3) = N[C@H](Cc1ccc(C(F)(F)F)cc1)C(=O)O; dBip = N[C@H](Cc1ccc(-c2ccccc2)cc1)C(=O)O; Tic = O=C(O)[C@@H]1Cc2ccccc2CN1
Numeric only. Scale: nM

# input molecule: CC(=O)N[C@@H](Cc1c[nH]cn1)C(=O)N[C@@H](CCCNC(=N)N)C(=O)N[C@H](Cc1ccccc1)C(=O)N1Cc2ccccc2C[C@H]1C(N)=O [KNS3-10, Ac-His-Arg-DPhe-Tic-NH2] (Ac-HR[dF][Tic]-NH2) ; wanted: its EC50
3000

# input molecule: CC(=O)N[C@@H](Cc1c[nH]cn1)C(=O)N[C@@H](CCCNC(=N)N)C(=O)N[C@H](Cc1ccc(-c2ccccc2)cc1)C(=O)N1Cc2ccccc2C[C@H]1C(N)=O [KNS2-23-1, Ac-His-Arg-DBip-Tic-NH2] (Ac-HR[dBip][Tic]-NH2) ; wanted: its EC50
1400

# input molecule: CC(=O)N[C@@H](Cc1c[nH]cn1)C(=O)N[C@@H](CCCNC(=N)N)C(=O)N[C@H](Cc1ccc(C(F)(F)F)cc1)C(=O)N1Cc2ccccc2C[C@H]1C(N)=O [KNS2-23-6, Ac-His-Arg-(pCF3)DPhe-Tic-NH2] (Ac-HR[dPhe(4-CF3)][Tic]-NH2) ; wanted: its EC50
600

----------
target: mMC4R (Mus musculus); assay: β-galactosidase cAMP reporter assay, agonist pharmacology in HEK293 cells stably expressing mMC4R
Non-standard residues stand in square brackets, D forms with d. Residues, ends and D or L forms follow the SMILES beside them. dPhe(3,4-Cl2) = N[C@H](Cc1ccc(Cl)c(Cl)c1)C(=O)O; dPhe(4-Br) = N[C@H](Cc1ccc(Br)cc1)C(=O)O; dPhe(4-Me) = Cc1ccc(C[C@@H](N)C(=O)O)cc1; dPhe(4-F) = N[C@H](Cc1ccc(F)cc1)C(=O)O; Tic = O=C(O)[C@@H]1Cc2ccccc2CN1
measured endpoint: EC50

Test system mMC4R (Mus musculus); read-out EC50; what value for CC(=O)N[C@@H](Cc1c[nH]cn1)C(=O)N[C@@H](CCCNC(=N)N)C(=O)N[C@H](Cc1ccc(Cl)c(Cl)c1)C(=O)N1Cc2ccccc2C[C@H]1C(N)=O [KNS2-23-4, Ac-His-Arg-(3,4-diCl)DPhe-Tic-NH2] (Ac-HR[dPhe(3,4-Cl2)][Tic]-NH2) ?
> 100000 nM

Test system mMC4R (Mus musculus); read-out EC50; what value for CC(=O)N[C@@H](Cc1c[nH]cn1)C(=O)N[C@@H](CCCNC(=N)N)C(=O)N[C@H](Cc1ccc(Br)cc1)C(=O)N1Cc2ccccc2C[C@H]1C(N)=O [KNS2-22-3, Ac-His-Arg-(pBr)DPhe-Tic-NH2] (Ac-HR[dPhe(4-Br)][Tic]-NH2) ?
290 nM

Test system mMC4R (Mus musculus); read-out EC50; what value for CC(=O)N[C@@H](Cc1c[nH]cn1)C(=O)N[C@@H](CCCNC(=N)N)C(=O)N[C@H](Cc1ccc(F)cc1)C(=O)N1Cc2ccccc2C[C@H]1C(N)=O [KNS2-22-2, Ac-His-Arg-(pF)DPhe-Tic-NH2] (Ac-HR[dPhe(4-F)][Tic]-NH2) ?
560 nM

Test system mMC4R (Mus musculus); read-out EC50; what value for CC(=O)N[C@@H](Cc1c[nH]cn1)C(=O)N[C@@H](CCCNC(=N)N)C(=O)N[C@H](Cc1ccc(C)cc1)C(=O)N1Cc2ccccc2C[C@H]1C(N)=O [KNS2-23-7, Ac-His-Arg-(pMe)DPhe-Tic-NH2] (Ac-HR[dPhe(4-Me)][Tic]-NH2) ?
700 nM

Test system mMC4R (Mus musculus); read-out EC50; what value for CC(=O)N[C@@H](Cc1c[nH]cn1)C(=O)N[C@@H](CCCNC(=N)N)C(=O)N[C@H](Cc1ccc(O)cc1)C(=O)N1Cc2ccccc2C[C@H]1C(N)=O [KNS2-23-9, Ac-His-Arg-DTyr-Tic-NH2] (Ac-HR[dY][Tic]-NH2) ?
> 100000 nM
